Where do these numbers come from? They come from patent US11197846B2.

- ASSAY: Plasma pharmacokinetics of nabilone and gabapentin after oral PP-01 once daily for four doses (LC-MS/MS), Example 1 clinical study
- MEASUREMENT_CONDITIONS: human, plasma, oral, 600 mg, t1/2, gabapentin 600 mg; Sequence AB; Days 4-5; arithmetic mean
ATTRIBUTE_MEASURED: half-life (h)
Field format: number, assumed h, no unit text.

Which value of half-life has been reported for NCC1(CC(=O)O)CCCCC1 [Gabapentin, 1-(aminomethyl)cyclohexaneacetic acid] in the records?
5.5

* * *

- ASSAY: Plasma pharmacokinetics of nabilone and gabapentin after oral PP-01 once daily for four doses (LC-MS/MS), Example 1 clinical study
- MEASUREMENT_CONDITIONS: human, plasma, oral, 6 mg, AUC0-24, nabilone 6 mg; Days 4-5; both sequences; arithmetic mean
ATTRIBUTE_MEASURED: AUC(0-t) (ng·h/mL)
Field format: number, assumed ng·h/mL, no unit text.

Which value of AUC(0-t) has been reported for CCCCCCC(C)(C)c1cc(O)c2c(c1)OC(C)(C)C1CCC(=O)CC21 (racemic) [Nabilone] in the records?
33.9
